# reported kon; entries follow
# assayed-target: T1, sIL-6R (soluble IL-6 receptor; SBH Sciences) (human, UniProt P08887 20-365)
# T1 construct: also called human IL-6R
# T1 sequence: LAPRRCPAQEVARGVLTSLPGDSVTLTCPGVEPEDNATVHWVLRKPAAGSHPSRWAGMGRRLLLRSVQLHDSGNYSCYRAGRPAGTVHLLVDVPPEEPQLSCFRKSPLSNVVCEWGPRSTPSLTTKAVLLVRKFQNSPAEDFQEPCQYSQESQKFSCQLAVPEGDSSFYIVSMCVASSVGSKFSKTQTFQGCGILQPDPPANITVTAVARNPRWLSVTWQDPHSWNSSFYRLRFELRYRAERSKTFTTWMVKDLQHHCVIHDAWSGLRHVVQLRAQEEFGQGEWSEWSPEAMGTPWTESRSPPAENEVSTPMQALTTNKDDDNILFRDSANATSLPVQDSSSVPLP
# protocol-description: SPR (BIAcore 3000), antibody on chip, sIL-6R analyte, 25 C
Field format: number, assumed M⁻¹ s⁻¹, no unit text.

Give its kon value. Item: 248# (antibody, human IgG1, kappa, V domains shown, also called Sample # 248) VH: QVQLQESGPGLVRPSQTLSLTCTVSGYSITSDHAWSWVRQPPGRGLEWIGYISYSGMITYNPSLKSRVTMLRDTSKNQFSLRLSSVTAADTAVYYCARTLARMTAIDFWGQGSLVTVSS VL: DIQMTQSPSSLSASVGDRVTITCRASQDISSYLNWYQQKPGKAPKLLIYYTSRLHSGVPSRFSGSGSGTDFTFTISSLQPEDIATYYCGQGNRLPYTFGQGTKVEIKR
91200

Now let's try a different one.
Give its kon value. Item: Tocilizumab (antibody, human IgG1, kappa, V domains shown, also called 25; 25(control)) VH: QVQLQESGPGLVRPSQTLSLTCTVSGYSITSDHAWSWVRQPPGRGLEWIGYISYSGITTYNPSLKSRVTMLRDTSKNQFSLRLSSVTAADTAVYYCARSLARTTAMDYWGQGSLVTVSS VL: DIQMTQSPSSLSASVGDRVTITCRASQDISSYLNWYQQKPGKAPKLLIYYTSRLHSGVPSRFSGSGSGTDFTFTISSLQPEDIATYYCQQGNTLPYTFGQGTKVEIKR
125000
